Test system: RXRa homodimer (NR concentration 180 nM)
Assay: PBM binding z-score (relative to random genomic background probes); higher = stronger binding; sequences stand for … in GC…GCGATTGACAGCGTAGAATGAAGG
Assign class by PBM binding z-score: not lower than 3 means Yes; lower than 3 means No.

chain.sequence	assigned.category
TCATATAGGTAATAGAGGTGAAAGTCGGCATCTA	No
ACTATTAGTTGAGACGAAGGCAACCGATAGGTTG	No
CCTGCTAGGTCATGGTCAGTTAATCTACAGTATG	Yes
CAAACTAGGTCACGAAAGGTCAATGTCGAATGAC	Yes
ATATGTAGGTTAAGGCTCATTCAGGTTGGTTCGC	No
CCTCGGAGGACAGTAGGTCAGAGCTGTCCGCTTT	No
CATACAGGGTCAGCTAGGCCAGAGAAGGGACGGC	Yes
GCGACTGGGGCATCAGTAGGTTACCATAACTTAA	No

Could you now look at the following sequence, please?
I'd appreciate it if you could say whether "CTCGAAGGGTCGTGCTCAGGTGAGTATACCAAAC" has PBM binding z-score at least equal to 3.
No
